- assaySystem: recombinant human DAO (diamine oxidase) (Homo sapiens)
- Construct: purchased R&D systems
- Sequence (P19801 20-751): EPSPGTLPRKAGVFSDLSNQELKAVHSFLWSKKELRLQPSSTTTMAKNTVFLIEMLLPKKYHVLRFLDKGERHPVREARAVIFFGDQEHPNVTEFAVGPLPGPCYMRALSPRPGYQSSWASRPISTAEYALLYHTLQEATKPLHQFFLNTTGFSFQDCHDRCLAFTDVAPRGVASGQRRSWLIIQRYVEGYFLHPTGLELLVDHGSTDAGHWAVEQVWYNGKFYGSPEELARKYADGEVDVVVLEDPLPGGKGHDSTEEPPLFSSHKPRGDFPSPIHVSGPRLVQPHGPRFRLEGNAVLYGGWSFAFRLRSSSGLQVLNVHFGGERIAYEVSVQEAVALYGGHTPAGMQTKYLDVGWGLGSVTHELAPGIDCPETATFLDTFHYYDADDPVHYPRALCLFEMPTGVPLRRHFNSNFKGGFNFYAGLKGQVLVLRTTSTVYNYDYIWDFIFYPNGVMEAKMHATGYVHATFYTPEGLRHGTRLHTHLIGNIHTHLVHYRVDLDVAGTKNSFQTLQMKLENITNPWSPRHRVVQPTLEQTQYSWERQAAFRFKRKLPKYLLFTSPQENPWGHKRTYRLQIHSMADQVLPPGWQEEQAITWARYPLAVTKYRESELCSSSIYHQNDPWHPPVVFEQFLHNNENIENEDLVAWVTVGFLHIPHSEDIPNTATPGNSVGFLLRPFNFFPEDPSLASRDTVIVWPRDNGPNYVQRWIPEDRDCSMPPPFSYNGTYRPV
- testDetails: Amplex Red HRP-coupled amine oxidase assay, recombinant human DAO
- Format: biochemical
- assaySetup: 1 mM putrescine substrate, read-out: Inhibitory activity (IC50, nM) DAO
Structures can show the parent of a compound that is named as a salt.
measuredAttribute: IC50 (nM)

Some compounds with known IC50 results, for comparison:
• N#Cc1cc(-c2ccn(CCO)n2)c2ncn(C/C(F)=C/CN)c2c1 [Example 195, hydrochloride] = 5560
• NC/C=C(\F)Cn1nnc2c(-c3cccc(S(=O)(=O)N4CCC(F)(F)C4)c3)cccc21 [Example 103, hydrochloride] = 27900
• Cc1nc2c(-c3cccc(S(=O)(=O)N(C)C)c3)cc(C(=O)N(C)C)cc2n1C/C(F)=C/CN [Example 76, hydrochloride] = 24600

P: Cn1nccc1-c1cc(C(F)(F)F)cc2c1ncn2C/C(F)=C/CN [Example 176, hydrochloride]
Q: NC/C=C(\F)Cn1cnc2c(-c3cccc(S(=O)(=O)NC4CC4)c3)cc(F)cc21 [Example 9, hydrochloride]
R: CCc1nc2c(-c3cccc(S(=O)(=O)N(C)C)c3)cccc2n1C/C(F)=C/CN [Example 84, hydrochloride]
Query: List these items ordered by IC50, big to small. The reply should contain the labels ordered as requested.
Response: P, R, Q
